Experiment: NCI Yeast Anticancer Drug Screen. Data for the rad50EPP+ strain (AID 151)
Settings: S. cerevisiae rad50 mutant strain, at 33.0 µM
Procedure: Growth inhibition of yeast strains with defined genetic alterations is measured as a screen for potential anti-cancer activity. Selected strains with alterations in DNA damage repair or cell cycle control were exposed to compounds and growth inhibition was measured relative to vehicle treated controls. The strain used in this assay is rad50EPP+
Compounds without any hit were thinned out: in the full panel of roughly 79,000, 15% have a hit. The source made the active and inactive calls. Rule as the data show it: active = growth inhibition above about 70%; inactive = the rest. Starred links: 1 amine or outer side, 2 acyl side, 3 side chain; linkers in the order of their positions; H or OH if unused. Positions of bridges follow the written chain, without caps; N, C: chain ends. Non-standard residues stand in square brackets, D forms with d. Residues, ends and D or L forms follow the SMILES beside them. Chains are numbered I, II in the order given. Actinocin(9to1) = Cc1c2oc3c(C)ccc(C(=O)[*:1])c3nc-2c(C(=O)[*:2])c(N)c1=O; aThr = C[C@H](O)[C@H](N)C(=O)O; NMeV = CN[C@H](C(=O)O)C(C)C; Sar = CNCC(=O)O
Outcomes: active, inactive

Cc1[nH]nc(C(F)(F)F)c1N=NN(C)C
active
CC[N+]1(C)CCC(O)(/C=C/c2ccc(Cl)c(Cl)c2)C(C(=O)/C=C/c2ccc(Cl)c(Cl)c2)C1 (stereo not drawn)
active
c1ccc(C2=NNC3c4ccccc4-c4ccccc4N3C2)cc1 (stereo not drawn)
inactive
O=C1c2ccccc2C(=O)C1C(c1ccc(F)cc1)C1C(=O)c2ccccc2C1=O
inactive
COc1cc(NCCCCCNC(C)C)c2ncccc2c1Cl
inactive
Cc1ccc(S(=O)(=O)N/N=C/c2c(O)ccc3ccccc23)cc1
inactive
O=[N+]([O-])C(=C(NCc1ccccc1)NCc1ccccc1)C(Cl)=C(Cl)Cl
active
Cc1nc2ccccc2c(=O)n1NC(=O)c1ccc(CS)cc1
inactive
CN(C)N1C(=O)SCC(c2ccccc2)(c2ccccc2)C1=O
inactive
O=S(=O)(CCC[C@H]1[C@@H](CCOCc2ccccc2)C2CCCN1O2)c1ccccc1 (stereo partly drawn)
inactive
COc1cc(C(C)(C)C)cc(OC)c1C(O)(c1c(OC)cc(C(C)(C)C)cc1OC)c1c(OC)cc(C(C)(C)C)cc1OC
active
O=C1C=CC(=Nc2ccc3c(c2)Cc2cc(Cl)ccc2-3)O1
active
O=C(CCC(=O)c1ccc(O)cc1)Oc1ccc(O)cc1
inactive
Cc1ccc2c(/C=C/c3ccc(N(C)C)cc3)ccnc2c1C
inactive
O=C(O)/C=C\C(=O)NNc1ccc(Br)cc1
active
O=C(CSS(=O)(=O)O)c1ccccc1
inactive
CN(C)N=Nc1ccc(NC=O)cc1
active
Cc1cc(NCCCN(C)C)c2ccc3c(ccc4c(NCCCN(C)C)cc(C)nc43)c2n1
inactive
Nc1nc(Nc2ccccc2)nc(Nc2ccccc2)n1
inactive
O=C(Nc1ccn(C2CC(O)C(COC(c3ccccc3)(c3ccccc3)c3ccccc3)O2)c(=O)n1)c1ccccc1 (stereo not drawn)
inactive
Cc1nc2ccc(Br)cc2c(=O)n1-c1ccc(NC2OCC(O)C(O)C2O)cc1 (stereo not drawn)
inactive
Cc1c2oc3c(C)ccc(C(=O)N[C@@H]4C(=O)N[C@H](C(C)C)C(=O)N5CCC[C@H]5C(=O)N(C)CC(=O)N(C)[C@@H](C(C)C)C(=O)O[C@H]4C)c3nc-2c(C(=O)N[C@@H]2C(=O)N[C@H](C(C)C)C(=O)N3CCC[C@H]3C(=O)N(C)CC(=O)N(C)[C@@H](C(C)C)C(=O)O[C@H]2C)c(N)c1=O (I: [aThr][dV]P[Sar][NMeV] / II: [aThr][dV]P[Sar][NMeV]; ester I:1-I:C, II:1-II:C; linker I:N-II:N via Actinocin(9to1))
active
CCCCCCCCCCCCOC1C(COCCN2CCCC2)OC2OC(C)(C)OC21 (stereo not drawn)
active
O=C(c1c(F)c(F)c(F)c(F)c1F)c1c(F)c(F)c(F)c(F)c1F
active
O=c1c(Br)cc2c(-c3ccccc3)c3cc(Br)c(O)c(Br)c3oc-2c1Br
inactive
CCCCCCCCCCCCCCCCCN
active
CC(C)c1ccc(C2NC(=S)NC3=C2c2ccccc2C3=O)cc1 (stereo not drawn)
inactive
O=c1oc(C(C(F)(F)F)C(F)(F)F)nc2ccccc12
inactive
CCc1nc2ccc(N=Nc3c(O)ccc4ccccc34)cc2[nH]1
inactive
CC1=NN(C(=O)CC(=O)N(C(=O)c2ccccc2)c2ccc(Cl)cc2)C(=O)C1N=Nc1ccc([N+](=O)[O-])cc1 (stereo not drawn)
inactive
COc1ccc(C(=O)OCCc2ccccc2)cc1
inactive
Nc1cccc2cc(Cl)cnc12
inactive
Cc1ccc(N(C=O)c2c([N+](=O)[O-])cc([N+](=O)[O-])c3c2=[N+]([O-])CN=3)cc1
active
CCOC(=O)c1sc2[n+](c1C)C(=O)/C(=C/c1cc(OC)c(OC)c(OC)c1)S2
inactive
O=C(Cc1ccccc1)c1ccc(O)cc1
inactive
CC[C@]1(O)C[C@H]2CN(CCc3c([nH]c4ccccc34)[C@@](C(=O)OC)(c3cc4c(cc3OC)N(C)[C@H]3[C@@](O)(C(=O)OC)[C@H](OC(C)=O)[C@]5(CC)C=CCN6CC[C@]43[C@@H]65)C2)C1
inactive
CCSc1c2ccccc2c(-c2nc(F)nc(F)n2)n1CCc1ccccc1
inactive
Cc1cccc[c]1[Sn]([Cl])([S]/C(C#N)=N/N=C/c1ccc(N(C)C)cc1)[c]1ccccc1C
inactive
